target desc: Grb2 SH2 (UniProt P62993)
Sequence (P62993 whole entry, looked up): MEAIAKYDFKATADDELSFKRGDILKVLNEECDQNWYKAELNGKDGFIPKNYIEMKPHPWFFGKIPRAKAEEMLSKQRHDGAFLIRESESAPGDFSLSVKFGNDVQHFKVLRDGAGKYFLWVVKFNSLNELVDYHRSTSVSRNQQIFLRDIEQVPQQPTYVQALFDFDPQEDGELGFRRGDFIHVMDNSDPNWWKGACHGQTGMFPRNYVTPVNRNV
measurement notes: SH2 binding enrichment of the phosphorylated peptide, bacterial display (enrichment ratio); higher = better substrate or ligand; peptides without Tyr show the background
Class Y: SH2 binding enrichment at least 1. Class N: SH2 binding enrichment below 1.

Dear colleague, could you confirm whether FSCLPYGRLAF [SLC52A2_Y305_YF] has SH2 binding enrichment at or above 1?
N

Dear colleague, could you confirm whether VNKIYYPDFIV [LIG3_Y768] has SH2 binding enrichment at or above 1?
Y

Dear colleague, could you confirm whether GLAELYEYKKK [CKAP5_Y1854] has SH2 binding enrichment at or above 1?
Y

Dear colleague, could you confirm whether FTRNYYVWAVL [CYBA_Y88_R90W] has SH2 binding enrichment at or above 1?
Y

Dear colleague, could you confirm whether KVWGIYDCQQP [CYP3A7_Y75] has SH2 binding enrichment at or above 1?
N

Dear colleague, could you confirm whether TRSFDYMEGGD [FGF7_Y58_YF] has SH2 binding enrichment at or above 1?
Y

Dear colleague, could you confirm whether MTFQNYRQALF [FAM20C_Y279_G280R] has SH2 binding enrichment at or above 1?
Y

Dear colleague, could you confirm whether IKELTYQMEED [MYH7_Y1852_T1854M] has SH2 binding enrichment at or above 1?
N

Dear colleague, could you confirm whether DSEIRYLSADS [TTF1_Y476] has SH2 binding enrichment at or above 1?
N

Dear colleague, could you confirm whether VECRVYAEDPY [PCCA_Y401] has SH2 binding enrichment at or above 1?
N

Dear colleague, could you confirm whether LANNEYYFRVC has SH2 binding enrichment at or above 1?
N

Dear colleague, could you confirm whether RRIHSYRRHLW [VHL_Y112_G114R] has SH2 binding enrichment at or above 1?
N

Dear colleague, could you confirm whether VGSIKYLKREW [KCNMA1_Y885_E884K] has SH2 binding enrichment at or above 1?
Y

Dear colleague, could you confirm whether IIGNGYFFRVF [MYBPC3_Y1135_YF] has SH2 binding enrichment at or above 1?
N

Dear colleague, could you confirm whether RIILLYIFLKN [STXBP1_Y411] has SH2 binding enrichment at or above 1?
Y

Dear colleague, could you confirm whether EVTRLYGSVCD [TC2N_Y154_K151T] has SH2 binding enrichment at or above 1?
Y

Dear colleague, could you confirm whether VSGIPYGQPKQ [NEU1_Y251] has SH2 binding enrichment at or above 1?
N

Dear colleague, could you confirm whether HAVFVCDICHV [TWNK_Y508_Y508C_YF] has SH2 binding enrichment at or above 1?
Y

Dear colleague, could you confirm whether ALWYIYLHTRS [ENG_Y614_S615L] has SH2 binding enrichment at or above 1?
N

Dear colleague, could you confirm whether KWRGQYDVANK [BTK_Y425_I429N] has SH2 binding enrichment at or above 1?
Y

Dear colleague, could you confirm whether YLAAIYPTVGQ [NF1_Y2508_T2507I] has SH2 binding enrichment at or above 1?
N

Dear colleague, could you confirm whether VNYGAYINNFK [GLB1_Y488_D491N] has SH2 binding enrichment at or above 1?
Y

====

Assignment: determine reported phosphorylation enrichment for the given sequences.
System: Fer (mouse)
measurement notes: phosphorylation enrichment, bacterial display (enrichment ratio); higher = better substrate or ligand; peptides without Tyr show the background
Please give only the number in your answer, with no unit.

The recorded phosphorylation enrichment for entry AEEEIYGIFGA [SRCtide_2014] equals 3

The recorded phosphorylation enrichment for entry EKLQQYIAPGM [EPHB3_Y600] equals 0.435

The recorded phosphorylation enrichment for entry QGIPWYHSQSP [FOXF1_Y331_R330W] equals 0.533

The recorded phosphorylation enrichment for entry KKILCYIQGGS [HYDIN_Y4610_N4606K] equals 0.58

The recorded phosphorylation enrichment for entry IHETTYKSIMK [ACTA1_Y281_N282K] equals 0.372

The recorded phosphorylation enrichment for entry NHQFDYTFDWT [CSNK1A1_Y294_YF] equals 0.459

The recorded phosphorylation enrichment for entry DEEEEYEFMNR [ERBB3_Y1197_D1194E_YF] equals 0.485

The recorded phosphorylation enrichment for entry RSRSSYTHGLN [MYCT1_Y116] equals 0.705

The recorded phosphorylation enrichment for entry TFINKYQGKLF [HGD_Y249_V245F] equals 0.358

The recorded phosphorylation enrichment for entry EVASVYQSYQP [MAVS_Y92] equals 2.7

The recorded phosphorylation enrichment for entry FMFKVYSDPQP [FGFR1_Y280_C277Y_YF] equals 0.679

The recorded phosphorylation enrichment for entry QNRELYSEGLG [CNKSR1_Y665] equals 0.309

The recorded phosphorylation enrichment for entry FGLDHYQCDCT [PTGS1_Y54_R53H] equals 0.464

The recorded phosphorylation enrichment for entry SVVVPYEPPEI [TP53_Y220_V225I] equals 0.4

The recorded phosphorylation enrichment for entry MHDKEYFSVHN [MET_Y1234_Y1230H_YF] equals 0.497

The recorded phosphorylation enrichment for entry FTGNTYRVGDT [FN1_Y106_YF] equals 0.396

The recorded phosphorylation enrichment for entry EHVMPYAANKN [GRIN2A_Y1431] equals 0.253

The recorded phosphorylation enrichment for entry FSVDSYDSSVR [KCNQ1_Y461_G460S] equals 0.498

The recorded phosphorylation enrichment for entry RASSVFTRSTG [CCR5_Y339_Y339F] equals 0.736

The recorded phosphorylation enrichment for entry IGLHAYGDQYR [IDH1_Y135_R132L] equals 0.48

The recorded phosphorylation enrichment for entry LEITWYPFDVE [RIPOR2_Y316] equals 0.827

The recorded phosphorylation enrichment for entry TVQIMYGCDVG [HLA-A_Y123_I119V] equals 0.611

The recorded phosphorylation enrichment for entry PNAFIYVVQLP [L1CAM_Y420_A415P_YF] equals 0.737

The recorded phosphorylation enrichment for entry LPEENYQVLCF [ARHGAP1_Y365_R369C] equals 7.5

The recorded phosphorylation enrichment for entry ILCTVYAFKMR [GRM3_Y754_T758M] equals 0.553

The recorded phosphorylation enrichment for entry DFDNLYFWDQD [ERBB2_Y1221_A1216D_YF] equals 2.2

The recorded phosphorylation enrichment for entry DSSIRYLQEIH [FGG_Y135_Y140H] equals 0.33

The recorded phosphorylation enrichment for entry GGFTCCCDGKK [PROS1_Y266_Y266C_YF] equals 0.542

The recorded phosphorylation enrichment for entry DENWFYMRAAS [RPS19_Y54_T55M] equals 0.594

The recorded phosphorylation enrichment for entry CDFKKYGKGLR [ZNF445_Y433_Y428C_YF] equals 0.31

The recorded phosphorylation enrichment for entry CERLPYDANKW [FLT1_Y815_S818N] equals 0.615

The recorded phosphorylation enrichment for entry GKAFIYASHIV [ZNF573_Y229] equals 1.16

The recorded phosphorylation enrichment for entry TDLAYYLVRKG [ASL_Y376] equals 0.48

The recorded phosphorylation enrichment for entry FSCLPYGRLAY [SLC52A2_Y305] equals 0.619

The recorded phosphorylation enrichment for entry LSAPEYGPKLK [TBC1D14_Y46] equals 0.458

The recorded phosphorylation enrichment for entry RETLTYAQAQG [BRD1_Y33_R38G] equals 0.383

The recorded phosphorylation enrichment for entry FEPWVYSFSFE [PRKDC_Y647_YF] equals 1.34

The recorded phosphorylation enrichment for entry KWRGQYDVANK [BTK_Y425_I429N] equals 0.446

The recorded phosphorylation enrichment for entry CTTIHQNFMCN [TP53_Y234_Y234Q_YF] equals 0.421

The recorded phosphorylation enrichment for entry MDFRSYPHEFG [RBM10_Y44_R46H_YF] equals 0.354

The recorded phosphorylation enrichment for entry IGRHAYGDQYR [IDH1_Y135] equals 0.417

The recorded phosphorylation enrichment for entry ETDTRYFDEEF [AKT1_Y437] equals 0.563

====

System: c-Src
measurement notes: phosphorylation enrichment, bacterial display (enrichment ratio); higher = better substrate or ligand; peptides without Tyr show the background
Class Met: phosphorylation enrichment at least 0.7. Class Not met: phosphorylation enrichment below 0.7.

Dear colleague, could you confirm whether FEPWVYSFSYE [PRKDC_Y647] has phosphorylation enrichment at or above 0.7?
Met

Dear colleague, could you confirm whether EFITRYIDSLK [PSMA7_Y110_A112D_YF] has phosphorylation enrichment at or above 0.7?
Not met

Dear colleague, could you confirm whether GYRPVYSEDEQ [CHST6_Y362] has phosphorylation enrichment at or above 0.7?
Not met

Dear colleague, could you confirm whether FISVGYVDDTQ [HLA-B_Y51] has phosphorylation enrichment at or above 0.7?
Not met

Dear colleague, could you confirm whether SGSFRYGSSCE [SELE_Y390] has phosphorylation enrichment at or above 0.7?
Not met

Dear colleague, could you confirm whether NYDLDYDSVQP [MYC_Y16] has phosphorylation enrichment at or above 0.7?
Met

Dear colleague, could you confirm whether LAGRFYALRSM [CKB_Y174_K177R_YF] has phosphorylation enrichment at or above 0.7?
Not met
